target: Mitogen-activated protein kinase 7 (Homo sapiens) (UniProt Q13164); assay: ERK5 transactivation activators in reporter cells, primary screen, cell-based, HTS (AID 1508626); settings: HeLa Gal4-ERK5 transactivation, 18 h, at 5 µM;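 note: luciferase driven by Gal4-ERK5 fusion binding five Gal4 sites before minimal TATA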
Sequence (Q13164 whole entry, looked up, the tested form may be a part): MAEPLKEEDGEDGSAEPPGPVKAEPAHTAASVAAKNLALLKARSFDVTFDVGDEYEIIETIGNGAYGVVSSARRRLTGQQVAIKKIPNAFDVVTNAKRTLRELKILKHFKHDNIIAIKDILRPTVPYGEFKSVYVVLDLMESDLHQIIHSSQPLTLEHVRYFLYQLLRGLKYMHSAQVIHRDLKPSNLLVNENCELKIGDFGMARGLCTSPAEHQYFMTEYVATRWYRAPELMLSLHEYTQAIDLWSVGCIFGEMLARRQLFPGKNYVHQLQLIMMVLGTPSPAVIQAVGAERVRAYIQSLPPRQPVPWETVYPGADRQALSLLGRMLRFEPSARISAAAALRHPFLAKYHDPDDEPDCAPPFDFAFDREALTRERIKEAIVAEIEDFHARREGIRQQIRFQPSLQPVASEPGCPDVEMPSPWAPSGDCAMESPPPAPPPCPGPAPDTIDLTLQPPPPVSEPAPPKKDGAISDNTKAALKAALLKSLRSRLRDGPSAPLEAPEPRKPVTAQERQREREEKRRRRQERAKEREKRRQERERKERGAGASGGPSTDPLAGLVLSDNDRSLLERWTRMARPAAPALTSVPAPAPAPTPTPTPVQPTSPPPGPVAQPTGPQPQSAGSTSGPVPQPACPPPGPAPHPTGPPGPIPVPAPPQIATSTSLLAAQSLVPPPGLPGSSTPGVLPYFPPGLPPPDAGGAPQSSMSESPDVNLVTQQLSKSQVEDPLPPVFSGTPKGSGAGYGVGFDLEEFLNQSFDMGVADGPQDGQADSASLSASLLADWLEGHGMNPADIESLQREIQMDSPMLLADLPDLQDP
Calls of active or inactive are those of the source.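 Rule for the calls: active = luciferase signal above three times the same-plate solvent-only control wells; inactive = the rest.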 Peptide text beside a SMILES is read from it.
Permitted responses: 1.0 (active), 0.0 (inactive)

[ask] How did this test come out for CCC(=O)OCC(=O)[C@@]1(OC(=O)CC)[C@@H](C)C[C@H]2[C@@H]3CCC4=CC(=O)C=C[C@]4(C)[C@@]3(Cl)[C@@H](O)C[C@@]21C ?
[reply] 0.0

[ask] How did this test come out for Cc1ccc(/C(=C\CN2CCCC2)c2ccccn2)cc1 ?
[reply] 0.0

[ask] How did this test come out for CC(C)C[C@H](N)C(=O)N[C@@H](C)C(=O)O (H-Leu-Ala-OH) ?
[reply] 0.0

[ask] How did this test come out for O=C(Oc1cccc2cccnc12)c1ccccc1 ?
[reply] 0.0

[ask] How did this test come out for CC(C)NCC(O)COc1cccc2[nH]ccc12 (stereo not given) ?
[reply] 0.0

[ask] How did this test come out for C=C1CCC(C2CC(=O)OC2=O)C(=O)CCC2C1CC2(C)C (stereo not given) ?
[reply] 0.0

[ask] How did this test come out for COc1cc2c(cc1OC)-c1cc3ccc(OC)c(OC)c3c[n+]1CC2 ?
[reply] 1.0

[ask] How did this test come out for O=C(O)c1cc(O)c2c(c1)C(=O)c1cc(O)cc(O)c1C2=O ?
[reply] 0.0

[ask] How did this test come out for COc1ccc(-c2cc(=O)c3c(OC(C)=O)cc(OC(C)=O)cc3o2)cc1 ?
[reply] 0.0

[ask] How did this test come out for CCCCC[C@H](CC(=O)O)C(=O)O ?
[reply] 0.0

[ask] How did this test come out for O=c1cccc2cc(O)c(O)c(O)c2c1O ?
[reply] 0.0

[ask] How did this test come out for CCC(C(N)=O)c1ccccc1 (stereo not given) ?
[reply] 0.0

[ask] How did this test come out for CC(=O)Oc1ccc2c(c1OC(C)=O)OCC1(O)Cc3c(cc(OC(C)=O)c(OC(C)=O)c3OC(C)=O)C21 (stereo not given) ?
[reply] 0.0

[ask] How did this test come out for CS(=O)(=O)c1ccc(C2=C(c3ccccc3)C(=O)OC2)cc1 ?
[reply] 0.0

[ask] How did this test come out for CC[C@H]1OC(=O)[C@H](C)[C@@H](O[C@H]2C[C@@](C)(OC)[C@@H](O)[C@H](C)O2)[C@H](C)[C@@H](O[C@@H]2O[C@H](C)C[C@H](N(C)C)[C@H]2O)[C@](C)(O)C[C@@H](C)/C(=N\OCOCCOC)[C@H](C)[C@@H](O)[C@]1(C)O ?
[reply] 0.0

[ask] How did this test come out for C=C1C(=O)O[C@@H]2C[C@@]3(C)CCC[C@H](C)C3=C[C@H]12 ?
[reply] 0.0

[ask] How did this test come out for CCOC(=O)[C@@](C)(N)Cc1ccc(O)c(O)c1 ?
[reply] 0.0

[ask] How did this test come out for O=C(O)CCC(=O)OC[C@@H](NC(=O)C(Cl)Cl)[C@H](O)c1ccc([N+](=O)[O-])cc1 ?
[reply] 0.0

[ask] How did this test come out for C=C1CC[C@H](O)C/C1=C/C=C1\CCC[C@]2(C)[C@@H]([C@H](C)/C=C/[C@H](C)C(C)C)CC[C@@H]12 ?
[reply] 0.0

[ask] How did this test come out for O=C(O)C1=C[C@@H](O)[C@@H](O)[C@H](O)C1 ?
[reply] 0.0

[ask] How did this test come out for CC(O)Cn1cnc2c1c(=O)n(C)c(=O)n2C (stereo not given) ?
[reply] 0.0

[ask] How did this test come out for Nc1c2ccccc2nc2ccccc12 (tested in a mixture with another compound) ?
[reply] 0.0

[ask] How did this test come out for COc1c(-c2ccccc2)oc2c(ccc3occc32)c1=O ?
[reply] 0.0

[ask] How did this test come out for COc1cccc(/C=C/C(=O)O)c1C(C)C ?
[reply] 0.0

[ask] How did this test come out for CCOC(=O)c1ccc(O)cc1 ?
[reply] 0.0

[ask] How did this test come out for O=C(O)c1cn(C2CC2)c2cc(N3CCNCC3)c(F)cc2c1=O ?
[reply] 0.0

[ask] How did this test come out for CC(C)NCC(O)COc1ccc(CC(N)=O)cc1 (stereo not given) ?
[reply] 0.0

[ask] How did this test come out for CN(C)CCN(Cc1cccs1)c1ccccn1 ?
[reply] 0.0

[ask] How did this test come out for CCCc1nn(C)c2c(=O)[nH]c(-c3cc(S(=O)(=O)N4CCN(C)CC4)ccc3OCC)nc12 ?
[reply] 0.0

[ask] How did this test come out for CC1(C)CC2C1CCC1(C)OC2(C)CCC1O (stereo not given) ?
[reply] 0.0

[ask] How did this test come out for O=C(O)c1cc(=O)c2ccccc2[nH]1 ?
[reply] 0.0

[ask] How did this test come out for OC[C@H]1O[C@@](CO)(O[C@H]2O[C@H](CO)[C@@H](O)[C@H](O)[C@H]2O)[C@@H](O[C@H]2O[C@H](CO)[C@@H](O)[C@H](O)[C@H]2O)[C@@H]1O ?
[reply] 0.0

[ask] How did this test come out for COc1cc([C@@H]2c3cc4c(cc3[C@@H](O[C@@H]3O[C@@H]5CO[C@@H](c6cccs6)O[C@H]5[C@H](O)[C@H]3O)[C@H]3COC(=O)[C@H]23)OCO4)cc(OC)c1O ?
[reply] 0.0

[ask] How did this test come out for C=C1C2CCC3(C)C(c4ccoc4)OC(=O)CC13OC1CC(OC(C)=O)C(C)(C)C(CC(=O)OC)C12C (stereo not given) ?
[reply] 0.0

[ask] How did this test come out for CN1C[C@H](C(=O)N[C@]2(C)O[C@@]3(O)[C@@H]4CCCN4C(=O)[C@H](Cc4ccccc4)N3C2=O)C[C@@H]2c3cccc4[nH]cc(c34)C[C@H]21 ?
[reply] 0.0

[ask] How did this test come out for COC1(C)CCC2OC2(C)CCC2C1CC2(C)C (stereo not given) ?
[reply] 0.0

[ask] How did this test come out for CC(C)=CCc1c(O)cc2oc(C)cc(=O)c2c1O ?
[reply] 0.0

[ask] How did this test come out for C=C1CC[C@@H]2[C@](C)(CO)[C@H](O)CC[C@@]2(C)[C@@H]1C/C=C1/C(=O)OC[C@H]1O ?
[reply] 1.0

[ask] How did this test come out for COc1ccc(-c2cc(=O)c3cc(OC)ccc3o2)cc1 ?
[reply] 0.0

[ask] How did this test come out for CN1C(=O)CC[C@H]1c1cccnc1 ?
[reply] 0.0
